All figures here come from patent US5466678A.

Tested on: tumor cells
Assay: Antitumor activity, all tumor cells tested (summary)
Format: cell-based, mouse and human
Details: SAMe alone, respective tumor cells
pIC50: −log10 of the molar value.
outcomeMeasure: pIC50

INSERT INTO assay_data (compound, outcomemeasure, testvalue) VALUES
  ('C[S+](CC[C@H](N)C(=O)O)C[C@H]1O[C@@H](n2cnc3c(N)ncnc32)[C@H](O)[C@@H]1O (stereo partly drawn) [SAMe, S-adenosyl-L-methionine]', 'pIC50', '≤ 3.00');

====

System: MKN45 gastric adenocarcinoma
Experiment: Test Example 10: antitumor activity against human tumors, MKN45
Type: cell-based
Details: CDDP alone
outcomeMeasure: IC50 (µM)

INSERT INTO measurements (compound, outcomemeasure, testvalue) VALUES
  ('N.N.[Cl][Pt][Cl] [CDDP, cis-diamine-dichloroplatinum]', 'IC50', 25.4);

====

System: ACHN renal adenocarcinoma
Assay: Test Example 10: antitumor activity against human tumors, ACHN
Format: cell-based
Details: CDDP alone
outcomeMeasure: IC50 (µM)

INSERT INTO measurements (molecule, experimentalsystem, outcomemeasure, testvalue) VALUES
  ('N.N.[Cl][Pt][Cl] [CDDP, cis-diamine-dichloroplatinum]', 'ACHN renal adenocarcinoma', 'IC50', 48.4);

====

Tested on: WiDr colon adenocarcinoma
Experiment: Test Example 10: antitumor activity against human tumors, WiDr
Format: cell-based
Conditions: CDDP alone
outcomeMeasure: IC50 (µM)

INSERT INTO results (molecule, experimentalsystem, testvalue) VALUES
  ('N.N.[Cl][Pt][Cl] [CDDP, cis-diamine-dichloroplatinum]', 'WiDr colon adenocarcinoma', 37.7);

====

Test system: L1210 leukemic cells
Assay: Test Example 7: in vitro antitumor activity, L1210
Type: cell-based, mouse
Conditions: test drug alone
outcomeMeasure: IC50

INSERT INTO assay_data (compound, experimentalsystem, testvalue) VALUES
  ('N.N.[Cl][Pt][Cl] [CDDP, cis-diamine-dichloroplatinum]', 'L1210 leukemic cells', '16.2 µM');

====

Tested on: MKN28 gastric adenocarcinoma
Assay: Test Example 10: antitumor activity against human tumors, MKN28
Assay type: cell-based
Settings: CDDP alone
pIC50: −log10 of the molar value.
outcomeMeasure: pIC50

INSERT INTO measurements (molecule, outcomemeasure, testvalue) VALUES
  ('N.N.[Cl][Pt][Cl] [CDDP, cis-diamine-dichloroplatinum]', 'pIC50', 4.20);
